Assay: Size and polydispersity index (PDI) of the lipid nanoparticle by dynamic light scattering
Assay type: physicochemical
Conditions: LNP encapsulating eGFP mRNA, ionizable lipid/DOPE/cholesterol/DMG-PEG2000 50/10/48.25/1.25 mol%, N/P 12
MEASURED_METRIC: PDI

Consider the worked cases shown below.
CCCCCCCCCCCCCOC(=O)CCCCCCCN(CCO)CCCN(CCCCCCCC(=O)OCCCCCCCCCCCCC)CCCCCCCC(=O)OCCCCCCCCCCCCC [Example 90]: 0.14
CCCCCCCCCCCCOC(=O)CCCN(CCCO)CCCN(CCCC(=O)OCCCCCCCCCCCC)CCCC(=O)OCCCCCCCCCCCC: 0.11
CCCCCCCCCCOC(=O)CCCN(CCO)CCCN(CCCC(=O)OCCCCCCCCCC)CCCC(=O)OCCCCCCCCCC: 0.17
CCCCC/C=C\C/C=C\CCCCCCCCOC(=O)CCCN(CCCO)CCCCN(CCCC(=O)OCCCCCCCC/C=C\C/C=C\CCCCC)CCCC(=O)OCCCCCCCC/C=C\C/C=C\CCCCC [Example 104]: 0.16
CCCCCCCCCCCCOC(=O)CCCCCN(CCO)CCCN(CCCCCC(=O)OCCCCCCCCCCCC)CCCCCC(=O)OCCCCCCCCCCCC: 0.20
CCCCCCCCC(CCCCCCCC)OC(=O)CCCCCCCN(CCO)CCCN(CCCCCCCC(=O)OC(CCCCCCCC)CCCCCCCC)CCCCCCCC(=O)OC(CCCCCCCC)CCCCCCCC: 0.24

a: CCCCCCCCCCCOC(=O)CCCCCCCN(CCO)CCCN(CCCCCCCC(=O)OCCCCCCCCCCC)CCCCCCCC(=O)OCCCCCCCCCCC
b: CCCCC/C=C\C/C=C\CCCCCCCCOC(=O)CCCCCCCN(CCCO)CCCN(CCCCCCCC(=O)OCCCCCCCC/C=C\C/C=C\CCCCC)CCCCCCCC(=O)OCCCCCCCC/C=C\C/C=C\CCCCC
c: CC/C=C\COC(=O)CCCCCCCN(CCO)CCCN(CCCCCCCC(=O)OC/C=C\CC)CCCCCCCC(=O)OC/C=C\CC [Example 97]
d: CCCCCCCCCCCOC(=O)CN(CCCCO)CCCN(CC(=O)OCCCCCCCCCCC)CC(=O)OCCCCCCCCCCC
e: CCCCCCCCCCCOC(=O)CCCN(CCCO)CCCCN(CCCC(=O)OCCCCCCCCCCC)CCCC(=O)OCCCCCCCCCCC
Exam item: Order each entry by recorded PDI, climbing from the minimum. # output: labels, in the requested order
Marked response: b, a, c, d, e
(b: 0.11, a: 0.18, c: 0.34, d: 60.95, e: 92.91)

I: CCCCCCCCCCCOC(=O)CCCN(CCCO)CCCN(CCCC(=O)OCCCCCCCCCCC)CCCC(=O)OCCCCCCCCCCC
II: CCCCCCCCCCCCCCCOC(=O)CCCCCCCN(CCO)CCCN(CCCCCCCC(=O)OCCCCCCCCCCCCCCC)CCCCCCCC(=O)OCCCCCCCCCCCCCCC
Exam item: Between I and II , which one shows the larger PDI value? Your answer should be the label attached to the chosen record.
Marked response: I

I: CCCCCCCCCCCOC(=O)CCCCN(CCCCO)CCCN(CCCCC(=O)OCCCCCCCCCCC)CCCCC(=O)OCCCCCCCCCCC
II: CC/C=C\C/C=C\CCCOC(=O)CCCCCCCN(CCO)CCCN(CCCCCCCC(=O)OCCC/C=C\C/C=C\CC)CCCCCCCC(=O)OCCC/C=C\C/C=C\CC
III: CCCCCCCCCCCCOC(=O)CCCCCN(CCCCO)CCCN(CCCCCC(=O)OCCCCCCCCCCCC)CCCCCC(=O)OCCCCCCCCCCCC
IV: CCCCC/C=C\C/C=C\CCCCCCCCOC(=O)CCCCCCCN(CCO)CCCN(CCCCCCCC(=O)OCCCCCCCC/C=C\C/C=C\CCCCC)CCCCCCCC(=O)OCCCCCCCC/C=C\C/C=C\CCCCC [Example 79]
Exam item: List the 4 entries from lowest PDI to highest PDI value. List the labels, following the order given in the request.
Marked response: II, I, III, IV
(II: 0.09, I: 0.14, III: 0.22, IV: 70.67)

I: CCCCCC/C=C\COC(=O)CCCCCN(CCO)CCCN(CCCCCC(=O)OC/C=C\CCCCCC)CCCCCC(=O)OC/C=C\CCCCCC
II: CCC/C=C\COC(=O)CCCCCCCN(CCO)CCCN(CCCCCCCC(=O)OC/C=C\CCC)CCCCCCCC(=O)OC/C=C\CCC
Exam item: # min-compare on PDI between I and II # answer = label of selected item
Marked response: I
(I: 0.17, II: 0.26)

###

Test: Size and polydispersity index (PDI) of the lipid nanoparticle by dynamic light scattering
Type: physicochemical
Conditions: LNP encapsulating eGFP mRNA, ionizable lipid/DOPE/cholesterol/DMG-PEG2000 50/10/48.25/1.25 mol%, N/P 12; in nm (unit assumed)
MEASURED_METRIC: Particle size

CCCCCCCCCCCCOC(=O)CCCCCCN(CCCO)CCCN(CCCCCCC(=O)OCCCCCCCCCCCC)CCCCCCC(=O)OCCCCCCCCCCCC [Example 48]: 76.18
CCCCCC/C=C\COC(=O)CCCN(CCO)CCCN(CCCC(=O)OC/C=C\CCCCCC)CCCC(=O)OC/C=C\CCCCCC [Example 16]: 99.65
CCCCCCCCCCCCCCOC(=O)CCCCCN(CCCO)CCCN(CCCCCC(=O)OCCCCCCCCCCCCCC)CCCCCC(=O)OCCCCCCCCCCCCCC [Example 54]: 72.45
CCCCC/C=C\C/C=C\CCCCCCCCOC(=O)CCCCN(CCCO)CCCN(CCCCC(=O)OCCCCCCCC/C=C\C/C=C\CCCCC)CCCCC(=O)OCCCCCCCC/C=C\C/C=C\CCCCC [Example 111]: 96.92
CCCCCCCCCCCOC(=O)CCCCCCN(CCCCO)CCCN(CCCCCCC(=O)OCCCCCCCCCCC)CCCCCCC(=O)OCCCCCCCCCCC [Example 37]: 77.57
CCCCCCCCCCCOC(=O)CN(CCO)CCCN(CC(=O)OCCCCCCCCCCC)CC(=O)OCCCCCCCCCCC [Example 73]: 85.54
CCCCCCCCCCCCCOC(=O)CCCCCCN(CCCO)CCCN(CCCCCCC(=O)OCCCCCCCCCCCCC)CCCCCCC(=O)OCCCCCCCCCCCCC [Example 34]: 82.74
CCCCCCCCCCCOC(=O)CCCCN(CCCO)CCCN(CCCCC(=O)OCCCCCCCCCCC)CCCCC(=O)OCCCCCCCCCCC [Example 42]: 98.73
CCCCC/C=C\C/C=C\CCCCCCCCOC(=O)CCCCCCN(CCCO)CCCN(CCCCCCC(=O)OCCCCCCCC/C=C\C/C=C\CCCCC)CCCCCCC(=O)OCCCCCCCC/C=C\C/C=C\CCCCC [Example 114]: 89.25
CCCCCCCCCCCCCOC(=O)CCCN(CCO)CCCN(CCCC(=O)OCCCCCCCCCCCCC)CCCC(=O)OCCCCCCCCCCCCC [Example 62]: 99.80
CCCCC/C=C\C/C=C\CCCCCCCCOC(=O)CCCN(CCCO)CCCN(CCCC(=O)OCCCCCCCC/C=C\C/C=C\CCCCC)CCCC(=O)OCCCCCCCC/C=C\C/C=C\CCCCC [Example 81]: 99.10
CCCCCCCCCCCOC(=O)CCCN(CCCO)CCCN(CCCC(=O)OCCCCCCCCCCC)CCCC(=O)OCCCCCCCCCCC [Example 64]: 90.58

###

Test: In vitro transfection of cells with eGFP-mRNA lipid nanoparticle (LNP preparation), fluorescence imaging and flow cytometry
Assay type: cell-based, mouse
Conditions: mouse, dc2.4 cells, 200 ng of mRNA per well, after 24 hours; read-out: Cell viability, %
Listed below: viability at 24 h values for each entry.
Report only the number, with the unit % understood.

These solved cases illustrate the format of a correct answer.
CCCCCCCCCCCCCOC(=O)CCCCCN(CCCCO)CCCN(CCCCCC(=O)OCCCCCCCCCCCCC)CCCCCC(=O)OCCCCCCCCCCCCC [Example 31]: 94.4
CCCCCCCCCCCCOC(=O)CCCCCCCN(CCO)CCCN(CCCCCCCC(=O)OCCCCCCCCCCCC)CCCCCCCC(=O)OCCCCCCCCCCCC [Example 50]: 90.4
CCCCCCCOC(=O)CCCCCCCN(CCO)CCCN(CCCCCCCC(=O)OCCCCCCC)CCCCCCCC(=O)OCCCCCCC [Example 4]: 75.9
CCCCCCCCCCCOC(=O)CCCN(CCCO)CCCCCN(CCCC(=O)OCCCCCCCCCCC)CCCC(=O)OCCCCCCCCCCC [Example 83]: 84.2
CCCCCCCCCCCCCOC(=O)CCCN(CCCO)CCCCN(CCCC(=O)OCCCCCCCCCCCCC)CCCC(=O)OCCCCCCCCCCCCC [Example 101]: 93.4

Now look at this one.
Exam item: Supply reported viability at 24 h belonging to this molecule: CC/C=C\CCCCCOC(=O)CCCCCCCN(CCO)CCCN(CCCCCCCC(=O)OCCCCC/C=C\CC)CCCCCCCC(=O)OCCCCC/C=C\CC [Example 8]
Marked response: 63.2

Just for reference, patent EP4678629A1 is where these values come from.
